Assay: Therapeutic Index is the […] of the IC50 to that of EC50
Type: cell-based
Settings: human, H9 cells; read-out: TI
Mark MET only for selectivity ratio values smaller than 6; exact matches and larger values are NOT MET.

Ask: Report whether reported selectivity ratio is lower than 6 (strictly) for C=C(C)[C@@H]1CC[C@]2(COC(=O)CCC(=O)O)CC[C@]3(C)[C@H](CC[C@@H]4[C@@]5(C)CC[C@H](OC(=O)CCC(=O)O)C(C)(C)[C@@H]5CC[C@]43C)[C@@H]12
Result: NOT MET

Ask: Please give the result for C=C(C)[C@@H]1CC[C@]2(CO)CC[C@]3(C)[C@H](CC[C@@H]4[C@@]5(C)CC=CC(C)(C)[C@@H]5CC[C@]43C)[C@@H]12 too.
Result: MET

Ask: Please give the result for CC(C)[C@@H]1CC[C@]2(COC(=O)CCC(=O)O)CC[C@]3(C)[C@H](CC[C@@H]4[C@@]5(C)CC[C@H](OC(=O)CCC(=O)O)C(C)(C)[C@@H]5CC[C@]43C)[C@@H]12 too.
Result: NOT MET

Ask: Please give the result for C=C(COC(=O)CC(C)(C)CC(=O)O)[C@@H]1CC[C@]2(COC(=O)CC(C)(C)CC(=O)O)CC[C@]3(C)[C@H](CC[C@@H]4[C@@]5(C)CC[C@H](OC(=O)CC(C)(C)CC(=O)O)C(C)(C)[C@@H]5CC[C@]43C)[C@@H]12 too.
Result: NOT MET

Ask: Please give the result for C=C(C)[C@@H]1CC[C@]2(COC(=O)CC3(CC(=O)O)CCCC3)CC[C@]3(C)[C@H](CC[C@@H]4[C@@]5(C)CC=CC(C)(C)[C@@H]5CC[C@]43C)[C@@H]12 too.
Result: MET

The origin of these recorded values is ChEMBL document CHEMBL1131182.
